# Tested on: full-length beta-Catenin (Uniprot ID P35222) (Homo sapiens (Human)) (UniProt P35222)
# Sequence (P35222 2-781 limits assumed): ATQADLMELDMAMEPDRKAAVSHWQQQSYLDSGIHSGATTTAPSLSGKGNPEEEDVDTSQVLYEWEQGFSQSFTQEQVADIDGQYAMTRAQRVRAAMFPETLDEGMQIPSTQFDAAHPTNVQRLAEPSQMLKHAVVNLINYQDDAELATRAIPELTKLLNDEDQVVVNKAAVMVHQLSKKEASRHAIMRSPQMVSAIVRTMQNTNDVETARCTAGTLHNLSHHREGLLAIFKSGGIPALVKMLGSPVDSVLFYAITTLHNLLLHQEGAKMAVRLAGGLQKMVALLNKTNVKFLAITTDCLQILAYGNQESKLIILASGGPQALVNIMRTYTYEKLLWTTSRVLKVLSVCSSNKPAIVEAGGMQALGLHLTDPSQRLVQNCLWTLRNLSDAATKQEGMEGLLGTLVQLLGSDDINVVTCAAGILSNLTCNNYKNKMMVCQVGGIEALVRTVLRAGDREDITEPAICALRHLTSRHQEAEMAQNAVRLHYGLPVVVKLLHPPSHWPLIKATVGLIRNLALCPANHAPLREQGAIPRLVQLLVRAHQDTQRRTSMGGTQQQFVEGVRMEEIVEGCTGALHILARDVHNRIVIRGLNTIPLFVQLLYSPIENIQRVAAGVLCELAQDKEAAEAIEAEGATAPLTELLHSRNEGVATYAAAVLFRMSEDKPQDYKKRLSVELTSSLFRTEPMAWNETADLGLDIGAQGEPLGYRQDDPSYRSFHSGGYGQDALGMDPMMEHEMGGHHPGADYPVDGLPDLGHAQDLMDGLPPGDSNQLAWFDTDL
# Measurement protocol: fluorescence polarization competition; 10 nM full-length beta-catenin + 10 nM 5FAM-TCF4(10-53) probe, peptide titrated
Starred links: 1 amine or outer side, 2 acyl side, 3 side chain; linkers in the order of their positions; H or OH if unused. Positions of bridges follow the written chain, without caps; N, C: chain ends. Non-standard residues stand in square brackets, D forms with d. Primed or numbered codes have the meaning given here. SeN″ = (S)-5-(((allyloxy)carbonyl)(methyl)amino)-2-amino-2-methylpentanoic acid (stapling residue), C=CCOC(=O)N(C)CCC[C@](C)(N[*:1])C(=O)[*:2]; B5(4) = 2,2-bis(4-pentenyl)glycine = 2-amino-2-(pent-4-en-1-yl)hept-6-enoic acid (stitching residue), C=CCCCC(CCCC=C)(N[*:1])C(=O)[*:2]; TfeGA = (S)-2-amino-3-((carboxymethyl)(2,2,2-trifluoroethyl)amino)propanoic acid, O=C([C@H](CN(CC(=O)[*:3])CC(F)(F)F)N[*:1])[*:2]; B5(3) = 2,2-bis(4-pentenyl)glycine (stitching residue), C=CCCCC(CCCC=C)(N[*:1])C(=O)[*:2]; Ala(1H-tetrazol-5-yl) = N[C@@H](Cc1nnn[nH]1)C(=O)O; Phe(3-F) = N[C@@H](Cc1cccc(F)c1)C(=O)O; Phe(3-Me) = Cc1cccc(C[C@H](N)C(=O)O)c1; Bta = N[C@@H](Cc1csc2ccccc12)C(=O)O; αAllylPro = C=CC[C@@]1(C(=O)O)CCCN1; 2Thi = N[C@@H](Cc1cccs1)C(=O)O; 3Thi = N[C@@H](Cc1ccsc1)C(=O)O; S8 = C=CCCCCCC[C@](C)(N)C(=O)O; Nle = CCCC[C@H](N)C(=O)O
Endpoint name: EC50 (nM)

Guide cases for EC50, answers given:
Ac-[αAllylPro]DA[B5(4)]DEAA[3Thi]Q[S8][Phe(3-F)][Bta]H-NH2 (staple 1-4, 4-11) [I-430]: 154
Ac-[αAllylPro]DA[B5(3)]D[TfeGA]AA[Phe(3-Me)]Q[SeN″][Phe(3-F)][Bta]Q-NH2 (staple 1-4, 4-11) [I-405]: 3820
Ac-[αAllylPro][Ala(1H-tetrazol-5-yl)]A[B5(3)]DEAAFQ[S8]F[Bta]Q-NH2 (staple 1-4, 4-11; also: staple isomer composition, earlier eluting HPLC peak) [I-416]: 5000
Ac-[αAllylPro]DA[B5(4)]DEAAFQ[S8][2Thi][Bta]Q-NH2 (staple 1-4, 4-11) [I-428]: 60
Ac-[αAllylPro]DA[B5(4)]DEAAFN[S8]F[Bta]-NH2 (staple 1-4, 4-11) [I-432]: 145
Ac-[αAllylPro]DA[B5(4)]DEAA[3Thi]Q[S8][Phe(3-F)][Bta]Q-NH2 (staple 1-4, 4-11) [I-429]: 146
Ac-[αAllylPro]D[Nle][B5(3)]DEAAFA[S8]F[Bta]Q-NH2 (staple 1-4, 4-11) [I-411]: 189

P = Ac-[αAllylPro]DA[B5(4)]D[TfeGA]AA[Phe(3-Me)]Q[S8][Phe(3-F)][Bta]Q-NH2 (staple 1-4, 4-11) [I-404]
Q = Ac-[αAllylPro]DI[B5(3)]DEAAFQ[S8]F[Bta]-NH2 (staple 1-4, 4-11; also: staple isomer composition, later eluting HPLC peak) [I-409]
input: # returns the entry with the larger EC50; inputs P and Q Identify your pick by its label.
output: P
